Test: Selectivity index, ratio of CC50 for African green monkey Vero cells to IC50 for Leishmania donovani MHOM/NP/02/BPK282/0c14
Format: toxicity
Conditions: read-out: Ratio CC50/IC50
quantity_kind: selectivity ratio
Lab note: jot the number down without any unit.

Worked examples follow.
C#CCOc1ccc(C(=O)/C=C/c2ccncc2)c(OCC#C)c1; 1.4
CC(C)=CCOc1ccc(C(=O)/C=C/c2ccncc2)c(O)c1; 8

Proceed to the following item.
Provide measured selectivity ratio value, entry: COc1cc(OCC=C(C)C)ccc1C(=O)/C=C/c1ccccc1
3.3

----------
Assay: Cytotoxicity against African green monkey Vero cells after 72 hrs by Alamar blue assay
Type: cell-based
Settings: chlorocebus sabaeus
quantity_kind: log10(CC50 at 72 h) (log10 of the value in µM)
Use the decimal logarithm of CC50 at 72 h (µM).

COc1cc(OCC=C(C)C)ccc1C(=O)/C=C/c1cccnc1; 1.34

Dear colleague, please send me the reported log10(CC50 at 72 h) for C#CCOc1ccc(C(=O)/C=C/c2ccc(Br)cc2)c(OCC#C)c1 when you can.
2.62

# return recorded log10(CC50 at 72 h) for entry C#CCOc1ccc(C(=O)/C=C/c2ccncc2)c(OCC#C)c1
1.00

Write down log10(CC50 at 72 h) measured for item COc1cc(OCC=C(C)C)ccc1C(=O)/C=C/c1cc(OC)c(OC)c(OC)c1
1.60

Identify measured log10(CC50 at 72 h) corresponding to COc1cc(OCC=C(C)C)ccc1C(=O)/C=C/c1ccncc1
1.20

Identify the reported log10(CC50 at 72 h) for the following entry. C[C@@H]1[C@H](O)[C@@H](C)/C=C/C=C/C=C/C=C/C=C/C=C/C=C/[C@H](O[C@@H]2O[C@H](C)[C@@H](O)[C@H](N)[C@@H]2O)C[C@@H]2O[C@](O)(C[C@@H](O)C[C@@H](O)[C@H](O)CC[C@@H](O)C[C@@H](O)CC(=O)O[C@H]1C)C[C@H](O)[C@H]2C(=O)O
2.30

----------
Assay: Cytotoxicity against African green monkey Vero cells after 72 hrs by Alamar blue assay
Format: cell-based
Details: chlorocebus sabaeus
quantity_kind: CC50 at 72 h

Please review the entries below; each comes with its answer.
CC(C)=CCOc1ccc(C(=O)/C=C/c2ccncc2)c(O)c1; 40 µM
C#CCOc1ccc(C(=O)/C=C/c2ccncc2)c(OC)c1; 20 µM
C#CCOc1ccc(C(=O)/C=C/c2ccc(Br)cc2)c(OC)c1; 100 µM
COc1cc(OCC=C(C)C)ccc1C(=O)/C=C/c1ccc(Br)cc1; 600 µM

From here, focus on the item given below.
Tell me CC50 at 72 h reported for COc1cc(OCC=C(C)C)ccc1C(=O)/C=C/c1ccccc1
50 µM

----------
Assay: Selectivity index, ratio of CC50 for human THP1 cells to IC50 for Leishmania donovani MHOM/NP/02/BPK282/0c14
Assay type: toxicity
Conditions: THP-1 cells, read-out: Ratio CC50/IC50
Assign Fulfilled whenever selectivity ratio does not fall below 3; assign Not fulfilled whenever it does.

Record CC(C)=CCOc1ccc(C(=O)/C=C/c2ccncc2)c(O)c1 ; criterion: selectivity ratio no lower than 3. Met?
Fulfilled

Kindly determine if selectivity ratio recorded for COc1cc(OCC=C(C)C)ccc1C(=O)/C=C/c1ccncc1 is above or exactly 3.
Not fulfilled

Check the entry C#CCOc1ccc(C(=O)/C=C/c2cccnc2)c(OC)c1 : does selectivity ratio equal or exceed 3?
Not fulfilled

Is selectivity ratio at least 3? Consider COc1cc(OCC=C(C)C)ccc1C(=O)/C=C/c1cccnc1
Fulfilled

Threshold query (selectivity ratio >= 3) on COc1cc(OCC=C(C)C)ccc1C(=O)/C=C/c1ccc([N+](=O)[O-])cc1
Fulfilled

Measured values drawn from ChEMBL document CHEMBL4152258 for this set.
